# assay_system: HLA-A*1101 (human)
# test_details: competition with 125I-labelled standard peptide for purified HLA, gel filtration
quantity_kind: binding affinity ratio (IC50 of standard peptide / IC50 of test peptide)
Reply with just the number.

Q. Quick one: binding affinity ratio (IC50 of standard peptide / IC50 of test peptide) for LIRCINCQK (modifications not checked) ?
A. 0.0009

Q. Which binding affinity ratio (IC50 of standard peptide / IC50 of test peptide) value belongs to IILECVYCK (modifications not checked) ?
A. 0.019

Q. Endpoint output: binding affinity ratio (IC50 of standard peptide / IC50 of test peptide) of AVCDKCLK (modifications not checked) [HPV16 E6 peptide AVCDKCLK] . Value?
A. 0.011

Q. // query binding affinity ratio (IC50 of standard peptide / IC50 of test peptide) value for entry LLIRCINCQK (modifications not checked)
A. 0.18
